Test system: M14 melanoma
Experiment: NCI-60 one-dose screen, 48 h (100 = growth as untreated, 0 = no growth, -100 = all killed)
Settings: 10 µM unless noted
Compounds without any hit were thinned out: in the full panel of roughly 83,000, 20% have a hit.
Please use rule met for growth under 80% and rule not met for everything else, ties included.

Consider the following illustrative entries.
{"Structure string": "O=C(NC(=S)Nc1cccc(NC(=S)NC(=O)c2ccccc2)c1)c1ccccc1", "Qualitative label": "rule met"}
{"Structure string": "O=C(CN1C(=O)/C(=C\\c2ccc(Cl)cc2)SC1=S)Nc1ncc(Cc2ccc(Cl)cc2)s1", "Qualitative label": "rule not met"}
{"Structure string": "CN1CCN(Cc2ccc(C(=O)Nc3cncc(C#Cc4cnc(N)c5ccccc45)c3)cc2C(F)(F)F)CC1", "Qualitative label": "rule met"}
{"Structure string": "c1ccc(CNc2nc(Nc3ccccc3)nc3ccccc23)cc1", "Qualitative label": "rule met"}
{"Structure string": "Cc1ccc2cc3c(N)c4c(C)ccc(C)c4nc3nc2c1", "Qualitative label": "rule met"}

Task: In the record for COC(=O)c1ccc(NC(=O)CSc2nc3ccccc3c(=O)n2-c2ccccc2)cc1 , is growth less than 80%?
Output: rule not met

Task: Thanks! And Nc1nc(Nc2cccc(F)c2)nc2ccccc12 ?
Output: rule met

Task: Thanks! And CCN(CC)c1cc(C)c2cc(NC(=O)c3cccc(OC)c3)ccc2n1 ?
Output: rule met
